Target: T1, 4H3628-bA
T1 chain: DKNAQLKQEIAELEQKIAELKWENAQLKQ
Experiment: two-hybrid library CCNG1;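 further: natural log of median RNA to DNA barcode read ratio; higher means stronger binding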
readout_kind: interaction score

(A) DENAQLKQKNAELKQEIAELEWEIAQLEQ [4H1985-bA]
(B) DKNAQLEQENAELKQKIAELEWEIAQLKQ [4H3298-bA]
Please state the entry with greater interaction score among A and B . Lab log: write the label of the selected item as the result.
B
(B: -0.0439, A: -1.35)
